Data provenance: ChEMBL document CHEMBL1137977

target_or_system: RNA-directed RNA polymerase (Hepacivirus hominis)
Sequence (O39930 whole entry): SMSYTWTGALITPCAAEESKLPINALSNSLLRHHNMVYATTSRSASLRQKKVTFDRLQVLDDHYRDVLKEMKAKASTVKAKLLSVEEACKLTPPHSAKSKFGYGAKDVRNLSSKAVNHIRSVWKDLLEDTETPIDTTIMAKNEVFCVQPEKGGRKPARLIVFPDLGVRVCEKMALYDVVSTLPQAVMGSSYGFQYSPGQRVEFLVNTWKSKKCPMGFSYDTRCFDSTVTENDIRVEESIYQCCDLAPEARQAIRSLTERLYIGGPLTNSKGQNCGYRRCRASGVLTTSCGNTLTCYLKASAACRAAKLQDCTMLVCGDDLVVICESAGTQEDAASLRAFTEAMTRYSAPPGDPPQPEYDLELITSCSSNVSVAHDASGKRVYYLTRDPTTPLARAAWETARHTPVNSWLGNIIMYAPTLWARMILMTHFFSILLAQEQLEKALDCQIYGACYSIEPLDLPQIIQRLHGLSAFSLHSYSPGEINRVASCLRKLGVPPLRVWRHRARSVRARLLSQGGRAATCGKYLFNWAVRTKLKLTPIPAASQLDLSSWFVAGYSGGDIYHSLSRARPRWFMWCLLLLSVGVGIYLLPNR
endpoint_name: IC50 (µM)

I. O=C(O)c1sc(-c2ccccc2)cc1NS(=O)(=O)c1ccccn1
II. Cc1cc(S(=O)(=O)Nc2cc(-c3ccccc3)sc2C(=O)O)c(C)cc1Cl
Returns the identifier with the smallest measured IC50 among I and II . Lab log: write the label of the selected item as the result. II
(II: 5 µM, I: 25 µM)
